- Target Desc: Kras and SOS1 (biotin-tagged human Kras loaded with GDP, His-tagged human SOS1) (Homo sapiens, UniProt P01116, G12D)
- Construct: made in house; host or cells: E. coli (stated for Kras only)
- Sequence (P01116 1-188 isoform P01116-2 G12D): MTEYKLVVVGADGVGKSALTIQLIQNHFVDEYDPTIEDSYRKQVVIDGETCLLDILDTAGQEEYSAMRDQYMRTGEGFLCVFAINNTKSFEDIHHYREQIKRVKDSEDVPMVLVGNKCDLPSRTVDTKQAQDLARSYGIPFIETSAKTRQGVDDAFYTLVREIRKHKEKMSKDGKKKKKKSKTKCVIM
- Assay Protocol: Protein-protein interaction inhibition between Kras and SOS1 (KrasGl2D-SOS PPI) using AlphaScreen
- Format: binding
- Study Conditions: AlphaScreen; biotin-tagged human Kras loaded with GDP, His-tagged human SOS1; read-out: KRAS G12D-SOS PPI IC50
Starred links: 1 amine or outer side, 2 acyl side, 3 side chain; linkers in the order of their positions; H or OH if unused. Positions of bridges follow the written chain, without caps; N, C: chain ends. Non-standard residues stand in square brackets, D forms with d. Residues, ends and D or L forms follow the SMILES beside them. *: point of attachment. hPhe(3,5-F2-4-CF3) = N[C@@H](CCc1cc(F)c(C(F)(F)F)c(F)c1)C(=O)O; hPhe(3-Cl-4-CF3) = N[C@@H](CCc1ccc(C(F)(F)F)c(Cl)c1)C(=O)O; NMePhe(4-CF3) = CN[C@@H](Cc1ccc(C(F)(F)F)cc1)C(=O)O; X29 = N#Cc1cc(CC[C@H](N[*:1])C(=O)[*:2])cc(Cl)c1Cl; NPrAsp = CCCN([C@@H](CC(=O)[*:3])C(=O)[*:2])[*:1]; Piperazinyl(4-(3-oxetanyl)) = C1OCC1N1CCN(*)CC1; NMeAbu(4,4,4-F3) = CN[C@@H](CC(F)(F)F)C(=O)O; NMePhe(3-Cl) = CN[C@@H](Cc1cccc(Cl)c1)C(=O)O; NMePhe(4-Cl) = CN[C@@H](Cc1ccc(Cl)cc1)C(=O)O; NMePhe(4-Me) = CN[C@@H](Cc1ccc(C)cc1)C(=O)O; X6 = CCN([C@@H](CC1CCCCC1)C(=O)[*:2])[*:1]; NMePhe(2-F) = CN[C@@H](Cc1ccccc1F)C(=O)O; NMeGly(cPent) = CN[C@H](C(=O)O)C1CCCC1; Phe(3-I) = N[C@@H](Cc1cccc(I)c1)C(=O)O; NMeCha = CN[C@@H](CC1CCCCC1)C(=O)O; NMeChg = CN[C@H](C(=O)O)C1CCCCC1; NMeI = CC[C@H](C)[C@H](NC)C(=O)O; NMeD = CN[C@@H](CC(=O)O)C(=O)O; NMeL = CN[C@@H](CC(C)C)C(=O)O; d(β3hA) = C[C@@H](N)CC(=O)O; NMeA = CN[C@@H](C)C(=O)O; Nle = CCCC[C@H](N)C(=O)O; Piperidide = C1CCN(*)CC1; Pyrrolidide = C1CCN(*)C1; dNMeA = CN[C@H](C)C(=O)O; Ac5c = NC1(C(=O)O)CCCC1; Aze = O=C(O)[C@@H]1CCN1; Sar = CNCC(=O)O
Reported Metric: log10 of IC50 (log10 of the value in nM)
For clarity, the numbers are log10 values of IC50 expressed in nM.

{"columns": ["Compound", "log10 of IC50"],
 "data": [
  ["CCCC[C@@H]1NC(=O)[C@H](Cc2cccc(I)c2)NC(=O)CN(C)C(=O)[C@H](Cc2ccc(Cl)cc2)N(C)C(=O)CN(C)C(=O)CN(C)C(=O)[C@H]([C@@H](C)CC)NC(=O)[C@H](CC(C)C)N(C)C(=O)C[C@@H](C(=O)N2CCCCC2)N(C)C(=O)[C@H](CC(C)C)NC(=O)[C@H](Cc2cccc(Cl)c2)N(C)C1=O [Compound 1044] ([NMeL]I[Sar][Sar][NMePhe(4-Cl)][Sar][Phe(3-I)][Nle][NMePhe(3-Cl)]L[NMeD]-Piperidide; lactam N-11)", 1.74],
  ["CC[C@H](C)[C@@H]1NC(=O)[C@H](CC(C)C)N(C)C(=O)C[C@@H](C(=O)N2CCCCC2)N(C)C(=O)[C@H](C2CCCCC2)N(C)C(=O)[C@H](C)NC(=O)[C@@H]2CCCN2C(=O)[C@H](CCc2ccc(C(F)(F)F)c(Cl)c2)NC(=O)CN(C)C(=O)[C@H](CC2CCCCC2)N(C)C(=O)CN(C)C(=O)CN(C)C1=O [Compound 591] ([NMeL]I[Sar][Sar][NMeCha][Sar][hPhe(3-Cl-4-CF3)]PA[NMeChg][NMeD]-Piperidide; lactam N-11)", 0.32],
  ["CC[C@H](C)[C@@H]1NC(=O)[C@H](CC(C)C)N(C)C(=O)C[C@@H](C(=O)N(C)C)N(C)C(=O)[C@H](C2CCCC2)N(C)C(=O)C2(CCCC2)NC(=O)[C@H](Cc2ccccc2F)N(C)C(=O)[C@H](CCc2ccc(C(F)(F)F)c(Cl)c2)NC(=O)CN(C)C(=O)[C@H](CC2CCCCC2)N(C)C(=O)[C@@H]2CCN2C(=O)[C@H](C)N(C)C1=O [Compound 43] ([NMeL]I[NMeA][Aze][NMeCha][Sar][hPhe(3-Cl-4-CF3)][NMePhe(2-F)][Ac5c][NMeGly(cPent)][NMeD]-NMe2; lactam N-11)", 1.49],
  ["CC[C@H](C)[C@@H]1NC(=O)[C@H](CC(C)C)N(C)C(=O)C[C@@H](C(=O)N2CCCCC2)N(C)C(=O)[C@H](C2CCCCC2)N(C)C(=O)C2(CCCC2)NC(=O)[C@@H]2CCCN2C(=O)[C@H](CCc2ccc(C(F)(F)F)c(Cl)c2)NC(=O)CN(C)C(=O)[C@H](CC2CCCCC2)N(CC)C(=O)CN(C)C(=O)CN(C)C1=O [Compound 543] ([NMeL]I[Sar][Sar][X6][Sar][hPhe(3-Cl-4-CF3)]P[Ac5c][NMeChg][NMeD]-Piperidide; lactam N-11)", -0.25]
]}

Give log10 of IC50 for each listed item.
1. CC[C@H](C)[C@@H]1NC(=O)[C@H](C)N(C)C(=O)C[C@@H](C(=O)N2CCCCC2)N(C)C(=O)[C@H](C2CCCCC2)N(C)C(=O)C2(CCCC2)NC(=O)[C@@H]2CCCN2C(=O)[C@H](CCc2cc(Cl)c(Cl)c(C#N)c2)NC(=O)CN(C)C(=O)[C@H](CC2CCCCC2)N(C)C(=O)CN(C)C(=O)CN(C)C1=O [Compound 2075] ([NMeA]I[Sar][Sar][NMeCha][Sar][X29]P[Ac5c][NMeChg][NMeD]-Piperidide; lactam N-11)
2. CC[C@H](C)[C@@H]1NC(=O)[C@H](CC(C)C)N(C)C(=O)C[C@@H](C(=O)N2CCN(C3COC3)CC2)NC(=O)[C@H]([C@@H](C)CC)N(C)C(=O)C2(CCCC2)NC(=O)[C@@H]2CCCN2C(=O)[C@H](CCc2ccc(C(F)(F)F)c(Cl)c2)NC(=O)CN(C)C(=O)[C@H](CC2CCCCC2)N(C)C(=O)CN(C)C(=O)CN(C)C1=O [Compound 1191] ([NMeL]I[Sar][Sar][NMeCha][Sar][hPhe(3-Cl-4-CF3)]P[Ac5c][NMeI]D-{Piperazinyl(4-(3-oxetanyl))}; lactam N-11)
3. CCCN1C(=O)[C@H](C2CCCC2)N(C)C(=O)C2(CCCC2)NC(=O)[C@@H]2CCCN2C(=O)[C@H](CCc2ccc(C(F)(F)F)c(Cl)c2)NC(=O)CN(C)C(=O)[C@H](CC2CCCCC2)N(C)C(=O)CN(C)C(=O)CN(C)C(=O)[C@H]([C@@H](C)CC)NC(=O)[C@H](C)N(C)C(=O)C[C@H]1C(=O)N1CCCCC1 [Compound 56] ([NMeA]I[Sar][Sar][NMeCha][Sar][hPhe(3-Cl-4-CF3)]P[Ac5c][NMeGly(cPent)][NPrAsp]-Piperidide; lactam N-11)
4. CC[C@H](C)[C@@H]1NC(=O)[C@H](CC(F)(F)F)N(C)C(=O)C[C@@H](C(=O)N2CCCC2)N(C)C(=O)[C@H](C2CCCCC2)N(C)C(=O)C2(CCCC2)NC(=O)[C@@H]2CCCN2C(=O)[C@H](CCc2cc(F)c(C(F)(F)F)c(F)c2)NC(=O)CN(C)C(=O)[C@H](Cc2ccc(C)cc2)N(C)C(=O)CN(C)C(=O)CN(C)C1=O [Compound 1278] ([NMeAbu(4,4,4-F3)]I[Sar][Sar][NMePhe(4-Me)][Sar][hPhe(3,5-F2-4-CF3)]P[Ac5c][NMeChg][NMeD]-Pyrrolidide; lactam N-11)
5. CC[C@H](C)[C@@H]1NC(=O)[C@H](C)N(C)C(=O)C[C@@H](C)NC(=O)[C@H](C2CCCC2)N(C)C(=O)C2(CCCC2)NC(=O)[C@@H]2CCCN2C(=O)[C@H](CCc2ccc(C(F)(F)F)c(Cl)c2)NC(=O)[C@@H](C)N(C)C(=O)[C@H](Cc2ccc(C(F)(F)F)cc2)N(C)C(=O)CN(C)C(=O)CN(C)C1=O [Compound 1520] (cyclo([Ac5c][NMeGly(cPent)][d(β3hA)][NMeA]I[Sar][Sar][NMePhe(4-CF3)][dNMeA][hPhe(3-Cl-4-CF3)]P))

0.04
0.83
0.36
-0.19
1.77

Reference source: patent US12371454B2
